Tested on: Fer (mouse)
test_method_notes: phosphorylation enrichment, bacterial display (enrichment ratio); higher = better substrate or ligand; peptides without Tyr show the background
The following sequences are listed with their measured phosphorylation enrichment values.
// no unit string in output, number only

# residue_sequence, phosphorylation enrichment
records = [
    ("LKYAIYFEVRE [LAMA2_Y1258_A1261V]", 0.929),
    ("RLKAKYAAATG [GLI3_Y933]", 0.486),
    ("DLNATYCTIQG [U2SURP_Y634_R635C]", 1),
    ("KRLDGYVLEGW [IGSF9_Y656_R661W]", 0.506),
    ("KAWTIYRPEDS [ZBP1_Y165]", 0.449),
    ("GNLQENLTRHV [TGFBR2_Y336_Y336N]", 0.366),
]

*Q* Tell me measured phosphorylation enrichment for IGEGTYRQVYK [CDK13_Y716_G717R] please.
*A* 0.449

----------
target_under_test: Jak2 (UniProt O60674)
Sequence (O60674 whole entry, looked up): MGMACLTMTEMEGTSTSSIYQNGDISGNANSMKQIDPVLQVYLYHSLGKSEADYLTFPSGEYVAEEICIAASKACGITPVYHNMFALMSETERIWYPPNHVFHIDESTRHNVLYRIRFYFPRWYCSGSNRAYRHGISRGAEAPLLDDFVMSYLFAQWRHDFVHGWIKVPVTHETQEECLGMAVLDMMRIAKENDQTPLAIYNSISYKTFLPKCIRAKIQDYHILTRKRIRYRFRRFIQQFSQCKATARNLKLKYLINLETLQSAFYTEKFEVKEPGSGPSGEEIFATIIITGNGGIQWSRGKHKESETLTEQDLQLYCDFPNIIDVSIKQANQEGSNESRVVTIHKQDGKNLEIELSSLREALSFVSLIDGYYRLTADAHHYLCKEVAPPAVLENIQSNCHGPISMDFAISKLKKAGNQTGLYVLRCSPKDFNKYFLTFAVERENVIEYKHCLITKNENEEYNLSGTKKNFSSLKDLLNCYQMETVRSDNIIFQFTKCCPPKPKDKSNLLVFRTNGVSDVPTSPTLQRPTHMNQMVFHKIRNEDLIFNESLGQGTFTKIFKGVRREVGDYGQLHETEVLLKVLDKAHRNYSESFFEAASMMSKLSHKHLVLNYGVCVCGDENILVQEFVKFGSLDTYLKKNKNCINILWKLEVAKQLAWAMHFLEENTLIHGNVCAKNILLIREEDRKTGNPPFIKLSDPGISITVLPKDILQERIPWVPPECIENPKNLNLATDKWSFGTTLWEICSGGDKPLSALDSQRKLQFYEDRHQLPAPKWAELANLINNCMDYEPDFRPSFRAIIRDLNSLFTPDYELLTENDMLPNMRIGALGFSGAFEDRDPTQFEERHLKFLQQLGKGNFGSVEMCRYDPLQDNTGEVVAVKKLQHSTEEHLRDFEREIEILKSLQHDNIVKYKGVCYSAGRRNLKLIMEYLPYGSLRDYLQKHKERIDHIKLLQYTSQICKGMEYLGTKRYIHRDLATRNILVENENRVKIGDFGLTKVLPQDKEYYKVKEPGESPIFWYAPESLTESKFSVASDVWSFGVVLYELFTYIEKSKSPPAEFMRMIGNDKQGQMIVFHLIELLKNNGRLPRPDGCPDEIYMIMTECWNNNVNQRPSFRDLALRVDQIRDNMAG
test_method_notes: phosphorylation enrichment, bacterial display (enrichment ratio); higher = better substrate or ligand; peptides without Tyr show the background
observable: phosphorylation enrichment
// no unit string in output, number only

Reference set, count: 8
# residue_sequence, target_under_test, observed_result
records = [
    ("QNTGNYFDLFG [PTPN11_Y62_D61N_YF]", "Jak2 (UniProt O60674)", 4.13),
    ("FEGRSYSACTT [MMP9_Y241]", "Jak2 (UniProt O60674)", 0.947),
    ("PVQAAYQNVVA [HBB_Y131_K133N]", "Jak2 (UniProt O60674)", 0.645),
    ("KLQKKYGPIYS [CYP17A1_Y60]", "Jak2 (UniProt O60674)", 0.378),
    ("LLREWYLQDPY [SIX3_Y225]", "Jak2 (UniProt O60674)", 1.11),
    ("LKGQVYILGRE [ASS1_Y359]", "Jak2 (UniProt O60674)", 1.17),
    ("ISGGGYRACPA [FGB_Y71_R74C]", "Jak2 (UniProt O60674)", 0.61),
    ("NPQKSCFIRLF [WAS_Y83_Y83C_YF]", "Jak2 (UniProt O60674)", 0.974),
]

*Q* Lab note: Jak2 (UniProt O60674) assay, enter phosphorylation enrichment for YPLELYERVRM [PRKCG_Y312] here
*A* 1.25

*Q* Fill in phosphorylation enrichment for ILGRYYERGSI [PAX5_Y73_T75R] tested with Jak2 (UniProt O60674).
*A* 0.563

*Q* Provide the reported phosphorylation enrichment (system: Jak2 (UniProt O60674)) for FEGAIYRKDIG [GART_Y417_V421I]
*A* 0.617

----------
Test system: AncSZ
test_method_notes: phosphorylation enrichment, bacterial display (enrichment ratio); higher = better substrate or ligand; peptides without Tyr show the background
observable: phosphorylation enrichment
Please give the numeric answer without any surrounding text.

Worked examples, 5 sequences total:
# residue_sequence, phosphorylation enrichment
data = [
    ("SVVVPYQPPEV [TP53_Y220_E221Q]", 0.728),
    ("LNEAVYTKMMT [G6PD_Y401_P396L]", 1.9),
    ("RGFRQYAFDGK [HLA-A_Y140_D140Y_YF]", 0.77),
    ("EKAEVYRSENE [RIOK2_Y348_G349R]", 1.09),
    ("KNSFKYFMSDD [ATRX_Y203_C200S_YF]", 0.856),
]

*Q* Return phosphorylation enrichment for the following sequence: LTVVIYVLIGR [EPHA3_Y561]
*A* 1.39

*Q* Provide one value: measured phosphorylation enrichment of KKGIVYVFNGR [ITGAV_Y404_I405V]
*A* 0.756

*Q* Provide one value: measured phosphorylation enrichment of DGNTRYSTFSE [TKTL1_Y318_D315N]
*A* 0.789

*Q* Supply measured phosphorylation enrichment of TYVKSYTIHYS [F5_Y2153_M2148T] in your reply.
*A* 1.27

*Q* Check the records and state phosphorylation enrichment for SHGQDYLAGNK [GSTA2_Y147_V149A]
*A* 0.641

*Q* Note phosphorylation enrichment for the sequence shown: LNLKDYNLVGG [GNAQ_Y356_E355D]
*A* 0.582

*Q* Give reported phosphorylation enrichment value for GTSLIYWILFT [G6PC3_Y214_T216I]
*A* 1.18

*Q* Tell me measured phosphorylation enrichment for QQTYTYDSGIH [JUP_Y22] please.
*A* 1.45

*Q* Could you please provide reported phosphorylation enrichment for NRLTDYYELLL [BBS10_Y536_P539L] ? Thanks!
*A* 1.64

----------
Measured phosphorylation enrichment of individual entries
target_under_test: FGFR3 (UniProt P22607)
Sequence (P22607 whole entry, looked up): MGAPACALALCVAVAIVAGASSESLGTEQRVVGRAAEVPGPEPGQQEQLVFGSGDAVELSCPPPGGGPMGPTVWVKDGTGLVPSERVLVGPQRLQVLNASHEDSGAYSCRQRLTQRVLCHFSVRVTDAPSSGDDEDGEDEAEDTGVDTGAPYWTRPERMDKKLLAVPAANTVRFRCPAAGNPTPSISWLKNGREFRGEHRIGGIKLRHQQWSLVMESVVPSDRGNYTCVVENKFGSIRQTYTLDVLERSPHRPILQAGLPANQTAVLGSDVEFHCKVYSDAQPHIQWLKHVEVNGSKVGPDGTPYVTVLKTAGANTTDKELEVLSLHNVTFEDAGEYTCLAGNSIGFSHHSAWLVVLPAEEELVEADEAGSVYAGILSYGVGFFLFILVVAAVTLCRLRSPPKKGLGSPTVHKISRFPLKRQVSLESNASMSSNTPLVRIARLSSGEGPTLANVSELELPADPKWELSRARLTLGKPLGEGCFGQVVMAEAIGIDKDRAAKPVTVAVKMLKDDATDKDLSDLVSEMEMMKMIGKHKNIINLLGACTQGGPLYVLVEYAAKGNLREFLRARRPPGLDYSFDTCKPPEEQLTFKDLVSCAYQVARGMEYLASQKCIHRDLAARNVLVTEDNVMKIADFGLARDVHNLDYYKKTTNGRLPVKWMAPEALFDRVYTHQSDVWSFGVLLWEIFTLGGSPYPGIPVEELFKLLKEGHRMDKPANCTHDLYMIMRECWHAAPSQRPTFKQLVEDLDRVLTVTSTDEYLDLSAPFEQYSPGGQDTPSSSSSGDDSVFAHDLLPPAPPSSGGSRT
test_method_notes: phosphorylation enrichment, bacterial display (enrichment ratio); higher = better substrate or ligand; peptides without Tyr show the background
Give a plain numeric answer without units written out.

Reference set (8 entries):
# residue_sequence, phosphorylation enrichment
rows = [
    ("GNLQENLTRHV [TGFBR2_Y336_Y336N]", 0.418),
    ("MVIPNYSSWTE [UROC1_Y185_R188W]", 1.07),
    ("TNGFTCGSSHQ [MANEA_Y331_Y331C]", 0.545),
    ("TKDTFYKQPMF [GBA_Y451]", 0.42),
    ("QKFMAYLSQGG [HLCS_Y236]", 0.64),
    ("LTERSYSFVTT [ACTA1_Y200_G199S]", 0.718),
    ("SVTCTYYPALN [TP53_Y126_S127Y]", 0.831),
    ("YSNKLYYQLEQ [PDPR_Y109]", 7.22),
]

*Q* Recall the reported phosphorylation enrichment of KRISCYEARFQ [PFKFB3_Y194_S197R_YF] on FGFR3 (UniProt P22607) and write it down.
*A* 0.496

*Q* Give FGFR3 (UniProt P22607) phosphorylation enrichment for the following sequence: DLDFTYIFPNI [PTEN_Y27_L25F_YF]
*A* 2.27

----------
target_under_test: c-Src SH2
test_method_notes: SH2 binding enrichment of the phosphorylated peptide, bacterial display (enrichment ratio); higher = better substrate or ligand; peptides without Tyr show the background
Recorded SH2 binding enrichment, one value per entry.

# residue_sequence, target_under_test, SH2 binding enrichment
records = [
    ("LKFAIYFEARE [LAMA2_Y1258_YF]", "c-Src SH2", 0.352),
    ("VSYDEYRYRSF [CFTR_Y515_V520F]", "c-Src SH2", 0.676),
    ("SVKVYYKKCWF [EPHA7_Y202_S207F]", "c-Src SH2", 0.501),
    ("IDAICYYRMEN [NPHS2_Y194]", "c-Src SH2", 0.499),
    ("SEKISYVFMKR [SSX7_Y48_L43S_YF]", "c-Src SH2", 0.386),
]

*Q* Note SH2 binding enrichment for the sequence shown: VIKDKYPQARY [APTX_Y209_K211Q]
*A* 0.532

*Q* Return SH2 binding enrichment for the following sequence: KYVVVYFREID [IL17RB_Y447]
*A* 1.37

----------
target_under_test: Grb2 SH2 (UniProt P62993)
Sequence (P62993 whole entry, looked up): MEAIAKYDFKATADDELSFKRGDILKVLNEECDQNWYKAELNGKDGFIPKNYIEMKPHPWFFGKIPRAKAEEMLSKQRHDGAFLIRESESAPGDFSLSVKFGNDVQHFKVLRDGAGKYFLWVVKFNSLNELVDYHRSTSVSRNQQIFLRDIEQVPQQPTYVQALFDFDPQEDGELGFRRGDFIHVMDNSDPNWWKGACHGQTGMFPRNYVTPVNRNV
test_method_notes: SH2 binding enrichment of the phosphorylated peptide, bacterial display (enrichment ratio); higher = better substrate or ligand; peptides without Tyr show the background
observable: SH2 binding enrichment
Give a plain numeric answer without units written out.

Answered cases to consult:
# residue_sequence, SH2 binding enrichment
rows = [
    ("FISLIYTNFEV [GSTP1_Y109_A114V_YF]", 0.774),
    ("LTEEKYELKEG [TREM1_Y29]", 1.14),
    ("DPEAAYTTRGG [EPHA3_Y779]", 0.872),
    ("LFLASYCIGGG [UBD_Y161_C160S]", 0.847),
    ("SVTCTYYPALN [TP53_Y126_S127Y]", 0.68),
    ("ERCAQYKKDGA [ALDOA_Y138]", 1.06),
    ("KKARAYRPGIE [FLNA_Y287_G288R]", 0.761),
    ("RQQQDYWLMDV [ANPEP_Y600_I603M]", 0.896),
]

*Q* # return recorded SH2 binding enrichment for input GTATAYLCGVK [ALPL_Y117]
*A* 0.763

----------
Measured phosphorylation enrichment of individual entries
target_under_test: Jak2 (UniProt O60674)
test_method_notes: phosphorylation enrichment, bacterial display (enrichment ratio); higher = better substrate or ligand; peptides without Tyr show the background
Please give only the number in your answer, with no unit.

Before answering, review these 5 worked examples.
# residue_sequence, observed_result
rows = [
    ("SAPPSYEETVA [LITAF_Y23]", 0.828),
    ("NKKHHYRELPV [ERN2_Y860]", 2.67),
    ("KPLMPYMRFSR [SMARCE1_Y73_YF]", 0.843),
    ("SVVVPYEPHEV [TP53_Y220_P223H]", 1.18),
    ("SRVTQYERNFE [SNX1_Y463_D466N]", 0.662),
]

*Q* # lookup: Jak2 (UniProt O60674) phosphorylation enrichment, key = IIEDPYYGNDS [ACP1_Y132]
*A* 1.33

*Q* Please look at RLKAKYPAATG [GLI3_Y933_A934P] and tell me its recorded phosphorylation enrichment on Jak2 (UniProt O60674).
*A* 0.905
